Target: mD4-dependent processive DNA synthesis (6His-mD4, vA20 and vE9) (Molluscum contagiosum virus, UniProt Q98260)
Sequence (Q98260 1-226): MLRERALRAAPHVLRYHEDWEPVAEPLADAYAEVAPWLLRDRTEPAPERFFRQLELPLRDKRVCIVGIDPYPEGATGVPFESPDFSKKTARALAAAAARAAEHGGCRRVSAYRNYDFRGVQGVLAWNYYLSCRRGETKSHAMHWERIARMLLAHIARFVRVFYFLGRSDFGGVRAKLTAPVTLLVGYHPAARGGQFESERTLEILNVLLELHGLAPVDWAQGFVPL
Experiment: biochemical
Set-up: species or system molluscum contagiosum virus / vaccinia virus
endpoint.label: pIC50
Numbers only, as −log10 of the molar value.

Please give measured pIC50 of the following entry: Oc1ccc(NCc2ccccc2OCc2ccccc2)cc1 [Compound 10, 4-[(2-benzyloxyphenyl)methylamino]phenol] 4.55

* * *

Field: half-life. Provide a value for each of the molecules that follow.
Experiment: Half-life stability in mouse liver microsomes
Assay type: in vitro ADME
Conditions: mouse, liver microsomes
Give bare numbers, in min.

- molecule: "Oc1ccc(NCc2ccccc2OCc2ccccc2)cc1 [Compound 10, 4-[(2-benzyloxyphenyl)methylamino]phenol]"
  half-life (min): 6.7

Tell me measured half-life for O=c1[nH]c2ccc(NCc3ccccc3OCc3ccccc3)cc2[nH]1 please. 36

# credit: patent US10112895B2
